- system-under-test: recombinant homotrimeric HA A/duck/Yangzhou/02/05 H8N4 (Influenza A virus A/duck/Yangzhou/02/2005(H8N4))
- test-name: protein microarray, purified IgG, trimeric HA
- measurement-conditions: remark: other sources report otherwise
endpoint-label: Trimeric HA Binding: RLU (RLU)

{"binder": "TCN-540 (5060_F05) (antibody, V domains shown) VH: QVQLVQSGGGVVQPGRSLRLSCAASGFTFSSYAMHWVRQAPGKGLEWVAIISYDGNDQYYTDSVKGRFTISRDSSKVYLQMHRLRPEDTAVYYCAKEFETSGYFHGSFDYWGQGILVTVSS VL: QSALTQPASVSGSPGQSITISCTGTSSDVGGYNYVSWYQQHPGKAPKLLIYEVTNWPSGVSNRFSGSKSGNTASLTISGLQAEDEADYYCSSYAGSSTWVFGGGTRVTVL", "endpoint-label": "Trimeric HA Binding: RLU", "result-units": "RLU", "endpoint-value": 318}
{"binder": "TCN-544 (5082_A19) (antibody, V domains shown) VH: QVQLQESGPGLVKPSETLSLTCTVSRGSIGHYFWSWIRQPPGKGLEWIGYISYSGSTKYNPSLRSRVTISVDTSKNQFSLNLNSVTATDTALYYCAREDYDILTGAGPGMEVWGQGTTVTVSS VL: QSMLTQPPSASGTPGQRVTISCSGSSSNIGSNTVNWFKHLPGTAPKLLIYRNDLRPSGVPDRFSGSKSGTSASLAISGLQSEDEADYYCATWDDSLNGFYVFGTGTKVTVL", "endpoint-label": "Trimeric HA Binding: RLU", "result-units": "RLU", "endpoint-value": 380}
{"binder": "TCN-530 (5248_H10a) (antibody, V domains shown) VH: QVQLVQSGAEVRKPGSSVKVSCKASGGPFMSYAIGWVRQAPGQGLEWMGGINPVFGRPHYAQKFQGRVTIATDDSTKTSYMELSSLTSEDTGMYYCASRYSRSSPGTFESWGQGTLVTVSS VL: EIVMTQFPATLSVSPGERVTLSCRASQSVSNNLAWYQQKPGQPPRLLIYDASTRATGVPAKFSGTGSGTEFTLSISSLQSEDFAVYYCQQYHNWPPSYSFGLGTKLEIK", "endpoint-label": "Trimeric HA Binding: RLU", "result-units": "RLU", "endpoint-value": 158}
